- Test system: VISA LIM 3 (NRS37)
- assay.notes: MIC/MBC broth microdilution, NRS37 (VISA LIM 3)
- Format: cell-based
- measurement.setup: Staphylococcus aureus; Table 8; NRS37 (VISA); read-out: MIC
Catalogue of MIC readings, one per entry.
Give just the number in µM; leave the unit off.

Example results:
INSERT INTO results (structure_smiles_string, system_name, measured_endpoint, units_label, reported_value) VALUES
  ('C/C(=N/NC(=N)N)c1sc(-c2ccc(-c3ccc(F)cc3)cc2)nc1C', 'VISA LIM 3 (NRS37)', 'MIC', 'µM', 8),
  ('CC(=O)c1ccc(-c2ccc(-c3nc(C)c(/C(C)=N\NC(=N)N)s3)cc2)cc1', 'VISA LIM 3 (NRS37)', 'MIC', 'µM', 8),
  ('CCCCc1ccc(-c2nc(C)c(/C(C)=N/NC(=N)N)s2)cc1', 'VISA LIM 3 (NRS37)', 'MIC', 'µM', 8),
  ('C/C(=N\NC(=N)N)c1sc(-c2ccc(N)cc2)nc1C', 'VISA LIM 3 (NRS37)', 'MIC', 'µM', 64),
  ('C/C(=N/NC(=N)N)c1sc(-c2ccc(-c3ccc(C(F)(F)F)cc3)cc2)nc1C', 'VISA LIM 3 (NRS37)', 'MIC', 'µM', 8);

# input compound: `CCCCC#Cc1ccc(-c2nc(C)c(/C(C)=N/NC(=N)N)s2)cc1` ; wanted: its MIC
4

Can you share its MIC? I mean this compound: `C/C(=N/NC(=N)N)c1sc(-c2ccc(-c3cccc4ccccc34)cc2)nc1C`
4

---

- Test system: MRSA ATCC 700699 (NRS1, VISA)
- assay.notes: MIC/MBC broth microdilution, NRS1 (ATCC 700699)
- Assay type: cell-based
- measurement.setup: Staphylococcus aureus; Table 7; VISA (NRS1); read-out: Minimum Inhibitory Concentration
measured.endpoint: MIC (µM)
Output spec: scalar in µM, unitless text.

INSERT INTO results (structure_smiles_string, system_name, reported_value) VALUES
  ('C/C(=N/NC(=N)N)c1sc(-c2ccc(-c3ccc(F)cc3)cc2)nc1C', 'MRSA ATCC 700699 (NRS1, VISA)', 4);

Record request: MIC value, item `CCCCc1ccc(-c2nc(C)c(/C(C)=N/NC(=N)N)s2)cc1`
16

Form field: reported MIC of `C/C(=N/NC(=N)N)c1sc(-c2ccc(-c3ccc(C(F)(F)F)cc3)cc2)nc1C`
4

Quick one: MIC for `CC(=O)c1ccc(-c2ccc(-c3nc(C)c(/C(C)=N\NC(=N)N)s3)cc2)cc1` ?
8

Quick check: MIC of `C/C(=N/NC(=N)N)c1sc(-c2ccc(-c3cccc4ccccc34)cc2)nc1C` ?
2

---

- Tested on: NRS119
- assay.notes: MIC/MBC broth microdilution, NRS119
- Format: cell-based
- measurement.setup: Staphylococcus aureus, NRS 119 / VISA; Table 7; VISA (NRS119); read-out: Minimum Inhibitory Concentration
Measured MIC of individual entries
# output: bare number, implied unit µM

Here are 4 molecules together with their reported answers.
INSERT INTO results (structure_smiles_string, units_label, reported_value) VALUES
  ('C/C(=N/NC(=N)N)c1sc(-c2ccc(-c3ccc(F)cc3)cc2)nc1C', 'µM', 16),
  ('C/C(=N/NC(=N)N)c1sc(-c2ccc(-c3ccc(C(F)(F)F)cc3)cc2)nc1C', 'µM', 16),
  ('CC(=O)c1ccc(-c2ccc(-c3nc(C)c(/C(C)=N\NC(=N)N)s3)cc2)cc1', 'µM', 16),
  ('C/C(=N/NC(=N)N)c1sc(-c2ccc(-c3cccc4ccccc34)cc2)nc1C', 'µM', 4);

Next molecule, MIC to be filled in.
For the molecule shown here, `CCCCc1ccc(-c2nc(C)c(/C(C)=N/NC(=N)N)s2)cc1` , give the reported MIC.
4

The origin of these recorded values is patent US9353072B2.
